- subjectOfTest: RPMI 8866 cells (Homo sapiens, UniProt P13612+P26010)
- Sequence (P13612 34-1032): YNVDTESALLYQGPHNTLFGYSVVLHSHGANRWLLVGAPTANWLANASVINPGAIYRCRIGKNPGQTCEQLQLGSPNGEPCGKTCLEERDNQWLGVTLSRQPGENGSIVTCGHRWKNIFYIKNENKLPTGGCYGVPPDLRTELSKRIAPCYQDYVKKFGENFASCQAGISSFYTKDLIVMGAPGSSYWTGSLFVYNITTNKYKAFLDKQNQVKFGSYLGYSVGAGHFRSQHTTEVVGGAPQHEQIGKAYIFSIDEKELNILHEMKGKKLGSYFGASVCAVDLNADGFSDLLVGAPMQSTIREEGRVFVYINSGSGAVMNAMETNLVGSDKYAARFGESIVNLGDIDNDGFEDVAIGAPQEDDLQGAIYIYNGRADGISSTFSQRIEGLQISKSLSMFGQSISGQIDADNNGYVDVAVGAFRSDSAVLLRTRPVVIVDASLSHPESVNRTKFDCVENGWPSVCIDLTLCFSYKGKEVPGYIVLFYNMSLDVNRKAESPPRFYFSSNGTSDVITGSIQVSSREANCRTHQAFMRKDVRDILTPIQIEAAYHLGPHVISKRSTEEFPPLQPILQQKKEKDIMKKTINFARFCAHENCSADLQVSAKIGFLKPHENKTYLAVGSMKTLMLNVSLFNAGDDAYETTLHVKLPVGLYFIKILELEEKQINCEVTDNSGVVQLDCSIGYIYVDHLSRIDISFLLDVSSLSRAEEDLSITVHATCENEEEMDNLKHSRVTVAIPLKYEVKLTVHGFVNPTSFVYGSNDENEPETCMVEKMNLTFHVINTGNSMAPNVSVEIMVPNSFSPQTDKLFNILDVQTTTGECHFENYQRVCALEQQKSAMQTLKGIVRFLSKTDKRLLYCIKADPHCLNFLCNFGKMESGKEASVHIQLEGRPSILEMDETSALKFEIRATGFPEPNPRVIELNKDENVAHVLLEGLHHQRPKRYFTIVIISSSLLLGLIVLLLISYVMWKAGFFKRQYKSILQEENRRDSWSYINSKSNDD
- Sequence (P26010 20-798): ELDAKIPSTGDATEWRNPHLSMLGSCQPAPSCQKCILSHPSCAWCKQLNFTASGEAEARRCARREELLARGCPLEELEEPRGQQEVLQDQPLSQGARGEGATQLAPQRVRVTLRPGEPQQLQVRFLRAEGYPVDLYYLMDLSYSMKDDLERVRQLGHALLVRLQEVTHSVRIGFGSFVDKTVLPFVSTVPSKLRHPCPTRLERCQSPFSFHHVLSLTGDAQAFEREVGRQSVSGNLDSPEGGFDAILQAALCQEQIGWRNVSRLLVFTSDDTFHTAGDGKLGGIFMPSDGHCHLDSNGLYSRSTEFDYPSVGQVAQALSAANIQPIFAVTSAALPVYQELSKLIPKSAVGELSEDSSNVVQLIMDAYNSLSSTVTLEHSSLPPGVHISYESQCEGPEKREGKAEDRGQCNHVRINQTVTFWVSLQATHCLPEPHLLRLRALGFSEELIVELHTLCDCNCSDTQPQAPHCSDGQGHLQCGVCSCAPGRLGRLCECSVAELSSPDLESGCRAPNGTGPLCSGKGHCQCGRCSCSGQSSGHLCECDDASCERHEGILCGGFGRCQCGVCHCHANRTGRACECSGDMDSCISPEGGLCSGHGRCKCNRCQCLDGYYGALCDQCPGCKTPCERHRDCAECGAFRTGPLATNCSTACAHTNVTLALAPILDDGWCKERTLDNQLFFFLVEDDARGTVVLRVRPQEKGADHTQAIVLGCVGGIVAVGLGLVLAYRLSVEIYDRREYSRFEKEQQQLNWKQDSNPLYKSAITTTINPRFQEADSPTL
- runDescription: α4β7-MAdCAM Cell Adhesion Assay
- Format: cell-based
- studyConditions: thioether monomer peptides, Table 6; read-out: Cell-Adhesion A4B7
pIC50: −log10 of the molar value. *1 amine or outer side, *2 acyl side, *3 side chain or, on linkers, in order; H or OH if unused. Where a SMILES comes first, the peptide text is derived from it. Bridges are numbered along the chain shown (N, C = ends). [ ]: non-standard residue; d: D form. Phe(4-tBu) = CC(C)(C)c1ccc(C[C@H](N)C(=O)O)cc1; NMeR = CN[C@@H](CCCNC(=N)N)C(=O)O; β3hE = N[C@@H](CCC(=O)O)CC(=O)O; X1 = O=C(c1ccccc1C[*:2])[*:1]; Pen = CC(C)(S)[C@H](N)C(=O)O
assayReadout: pIC50

Qu. Field request: pIC50 | item: CC(C)C[C@@H]1NC(=O)[C@H]([C@@H](C)O)NC(=O)[C@H](CC(=O)O)NC(=O)[C@H](CO)NC(=O)[C@H](CCCNC(=N)N)N(C)C(=O)c2ccccc2CSC[C@@H](C(=O)N[C@@H](Cc2c[nH]c3ccccc23)C(=O)N[C@@H](CCC(=O)O)C(=O)N[C@H](CCCCN)C(N)=O)NC1=O [compound 55] (HELM PEPTIDE1{[meR].S.D.T.L.C.W.E.[dK].[am]}|CHEM1{[O=C(c1ccccc1C[*:2])[*:1]]}$PEPTIDE1,CHEM1,1:R1-1:R1|PEPTIDE1,CHEM1,6:R3-1:R2$$$V2.0)
Ans. 6.00 to 7.00

Qu. Field request: pIC50 | item: CC(C)C[C@@H]1NC(=O)[C@H]([C@@H](C)O)NC(=O)[C@H](CC(=O)O)NC(=O)[C@H](CO)NC(=O)[C@H](CCCNC(=N)N)N(C)C(=O)c2ccccc2CSC(C)(C)[C@@H](C(=O)N[C@@H](Cc2c[nH]c3ccccc23)C(=O)N[C@@H](CCC(=O)O)C(N)=O)NC1=O [compound 96] (HELM PEPTIDE1{[meR].S.D.T.L.[Pen].W.E.[am]}|CHEM1{[O=C(c1ccccc1C[*:2])[*:1]]}$PEPTIDE1,CHEM1,1:R1-1:R1|PEPTIDE1,CHEM1,6:R3-1:R2$$$V2.0)
Ans. 6.00 to 7.00

Qu. Field request: pIC50 | item: CC(C)C[C@@H]1NC(=O)[C@H]([C@@H](C)O)NC(=O)[C@H](CC(=O)O)NC(=O)[C@H](CO)NC(=O)[C@H](CCCNC(=N)N)N(C)C(=O)c2ccccc2CSC(C)(C)[C@@H](C(=O)N[C@@H](Cc2c[nH]c3ccccc23)C(=O)N[C@H](CCC(=O)O)C(=O)N[C@H](Cc2ccc(O)cc2)C(N)=O)NC1=O [compound 110] (HELM PEPTIDE1{[meR].S.D.T.L.[Pen].W.[dE].[dY].[am]}|CHEM1{[O=C(c1ccccc1C[*:2])[*:1]]}$PEPTIDE1,CHEM1,1:R1-1:R1|PEPTIDE1,CHEM1,6:R3-1:R2$$$V2.0)
Ans. 7.00 to 7.60

Qu. Field request: pIC50 | item: CC(C)C[C@@H]1NC(=O)[C@H]([C@@H](C)O)NC(=O)[C@H](CC(=O)O)NC(=O)[C@H](CO)NC(=O)[C@H](CCCNC(=N)N)N(C)C(=O)c2ccccc2CSC(C)(C)[C@@H](C(=O)N[C@@H](Cc2c[nH]c3ccccc23)C(=O)N[C@H](CCC(=O)O)C(=O)N[C@@H](CN)C(N)=O)NC1=O [compound 94] (HELM PEPTIDE1{[meR].S.D.T.L.[Pen].W.[dE].[NC[C@H](N[*:1])C(=O)[*:2]].[am]}|CHEM1{[O=C(c1ccccc1C[*:2])[*:1]]}$PEPTIDE1,CHEM1,1:R1-1:R1|PEPTIDE1,CHEM1,6:R3-1:R2$$$V2.0)
Ans. 6.00 to 7.00

Qu. Field request: pIC50 | item: CC(C)C[C@@H]1NC(=O)[C@H]([C@@H](C)O)NC(=O)[C@H](CC(=O)O)NC(=O)[C@H](CO)NC(=O)[C@H](CCCNC(=N)N)N(C)C(=O)c2ccccc2CSC(C)(C)[C@@H](C(=O)N[C@@H](Cc2c[nH]c3ccccc23)C(=O)N[C@H](CCC(=O)O)C(=O)N[C@H](Cc2ccccc2)C(N)=O)NC1=O [compound 107] (HELM PEPTIDE1{[meR].S.D.T.L.[Pen].W.[dE].[dF].[am]}|CHEM1{[O=C(c1ccccc1C[*:2])[*:1]]}$PEPTIDE1,CHEM1,1:R1-1:R1|PEPTIDE1,CHEM1,6:R3-1:R2$$$V2.0)
Ans. 7.00 to 7.60

Qu. Field request: pIC50 | item: CC(C)C[C@@H]1NC(=O)[C@H]([C@@H](C)O)NC(=O)[C@H](CC(=O)O)NC(=O)[C@H](CO)NC(=O)[C@H](CCCNC(=N)N)N(C)C(=O)c2ccccc2CSC(C)(C)[C@@H](C(=O)N[C@@H](Cc2c[nH]c3ccccc23)C(=O)N[C@H](CCC(=O)O)C(=O)N[C@@H](CCN)C(N)=O)NC1=O [compound 95] (HELM PEPTIDE1{[meR].S.D.T.L.[Pen].W.[dE].[Dab].[am]}|CHEM1{[O=C(c1ccccc1C[*:2])[*:1]]}$PEPTIDE1,CHEM1,1:R1-1:R1|PEPTIDE1,CHEM1,6:R3-1:R2$$$V2.0)
Ans. 6.00 to 7.00

Qu. Field request: pIC50 | item: CC(C)C[C@@H]1NC(=O)[C@H]([C@@H](C)O)NC(=O)[C@H](CC(=O)O)NC(=O)[C@H](CO)NC(=O)[C@H](CCCNC(=N)N)N(C)C(=O)c2ccccc2CSC(C)(C)[C@@H](C(=O)N[C@@H](Cc2c[nH]c3ccccc23)C(=O)N[C@@H](CCC(=O)O)C(=O)N[C@@H](CN)C(N)=O)NC1=O [compound 92] (HELM PEPTIDE1{[meR].S.D.T.L.[Pen].W.E.[NC[C@H](N[*:1])C(=O)[*:2]].[am]}|CHEM1{[O=C(c1ccccc1C[*:2])[*:1]]}$PEPTIDE1,CHEM1,1:R1-1:R1|PEPTIDE1,CHEM1,6:R3-1:R2$$$V2.0)
Ans. 7.00 to 7.60

Qu. Field request: pIC50 | item: CC(C)C[C@@H]1NC(=O)[C@H]([C@@H](C)O)NC(=O)[C@H](CC(=O)O)NC(=O)[C@H](CO)NC(=O)[C@H](CCCNC(=N)N)N(C)C(=O)c2ccccc2CSC(C)(C)[C@@H](C(=O)N[C@@H](Cc2ccc(C(C)(C)C)cc2)C(=O)N[C@@H](CCC(=O)O)CC(N)=O)NC1=O [compound 134] ([NMeR]SDTL[Pen][Phe(4-tBu)][β3hE]-NH2; linker N-6 via X1)
Ans. > 7.60
